Experiment: Hygroscopicity of acid addition salts
Format: physicochemical
Where a name gives a salt, the structure may show the parent alone.
observed_property: hygroscopicity

Worked set:
>>> experimental_value("Fc1cccc(Br)c1N=C1NCCN1 [Oxalate]")
"hygroscopic"
>>> experimental_value("Fc1cccc(Br)c1N=C1NCCN1 [Benzoate]")
"slightly hygroscopic"
>>> experimental_value("Fc1cccc(Br)c1N=C1NCCN1 [Nitrate]")
"slightly hygroscopic"
>>> experimental_value("Fc1cccc(Br)c1N=C1NCCN1 [Hydrobromide]")
"hygroscopic"
>>> experimental_value("Fc1cccc(Br)c1N=C1NCCN1 [Methanesulfonate]")
"hygroscopic"

Reported hygroscopicity, compound Fc1cccc(Br)c1N=C1NCCN1 [Citrate] : ____
hygroscopic

Need hygroscopicity, item Fc1cccc(Br)c1N=C1NCCN1 [Tosylate]
hygroscopic

Which hygroscopicity is listed for Fc1cccc(Br)c1N=C1NCCN1 [Tartrate] ?
hygroscopic
